Target: SARS2 coronavirus 3CL protease (Severe acute respiratory syndrome coronavirus 2, UniProt P0DTD1)
Assay: SARS2 Coronavirus 3CL Protease Assay (FRET)
Format: biochemical
Details: 5 nM protease pre-incubated with compound 30 minutes; 15 uM peptide substrate; 4 h room temperature; read-out: FRET Potency (nM); IC50 values in the SARS2 3CLPro FRET assay
endpointName: IC50
Write the quantity with the unit trailing the number.

Some solved cases for reference:
molecule	endpointName	result
CNC(=O)C(=O)[C@H](CCC(C)(F)F)NC(=O)c1cc(Cl)ccc1NC(=O)C1CN(C)C1	IC50	21.8 nM
CNC(=O)C(=O)[C@H](CCC(C)(F)F)NC(=O)c1cc(C#N)ccc1NC(=O)c1cccc(F)c1	IC50	45.3 nM

Request the reported IC50 associated with CNC(=O)C(=O)[C@H](CCC(C)F)NC(=O)c1cc(Cl)ccc1NC(=O)OC (single isomer, unassigned) [Example 6C]
13.6 nM

Request the reported IC50 associated with CC(F)(F)CC[C@H](NC(=O)c1cc(Cl)ccc1NC(=O)c1cccc(C(F)(F)F)c1)C(=O)C(=O)NC1CC1
7.9 nM

Request the reported IC50 associated with CNC(=O)C(=O)[C@H](CCC(C)F)NC(=O)c1cc(Cl)ccc1NC(=O)OC (single isomer, unassigned) [Example 6A]
25.8 nM

Request the reported IC50 associated with CNC(=O)C(=O)[C@H](CCC(C)(F)F)NC(=O)c1cc(Cl)ccc1NC(=O)[C@H](C)OC
9.4 nM

Request the reported IC50 associated with CC(F)(F)CC[C@H](NC(=O)c1cc(Cl)cnc1NC(=O)C12CC(C(F)(F)F)(C1)C2)C(=O)C(=O)NC1CC1
17.4 nM

Request the reported IC50 associated with CNC(=O)C(=O)[C@H](CCC(C)(F)F)NC(=O)c1cc(Cl)c(F)cc1NC(=O)CCC(F)(F)F
9.9 nM

Request the reported IC50 associated with CNC(=O)C(=O)[C@H](CCC(C)(F)F)NC(=O)c1cc(Cl)ccc1NC(=O)C1CC1C(F)(F)F (stereo partly shown) [Example 30]
20.7 nM

Request the reported IC50 associated with CC(F)(F)CC[C@H](NC(=O)c1cc(F)cnc1NC(=O)C(C)(C)C)C(=O)C(=O)NC1CC1
94.8 nM

---

Biological target: SARS2 coronavirus 3CL protease (Severe acute respiratory syndrome coronavirus 2)
Assay: SARS2 Coronavirus 3CL Protease Assay (FRET)
Type: biochemical
Details: 5 nM protease pre-incubated with compound 30 minutes; 15 uM peptide substrate; 4 h room temperature; read-out: FRET Potency (nM); IC50 values in the SARS2 3CLPro FRET assay
endpointName: IC50

Some solved cases for reference:
molecule	result
CNC(=O)C(=O)[C@H](CCC(C)(F)F)NC(=O)c1cc(F)cnc1NC(=O)C12CC(F)(C1)C2	23.9 nM
CNC(=O)C(=O)[C@H](CCC(C)(F)F)NC(=O)c1cc(Cl)ccc1NC(=O)c1ccnc(C(F)(F)F)c1	8.1 nM
CNC(=O)C(=O)[C@H](CCC(C)(F)F)NC(=O)c1cc(Cl)ccc1NC(=O)N(C)CC1CCC(F)(F)CC1	6 nM
CC(F)(F)CC[C@H](NC(=O)c1cc(Cl)ccc1NC(=O)c1ccnc(C(F)(F)F)c1)C(=O)C(N)=O	18 nM
CNC(=O)C(=O)[C@H](CCC(C)(F)F)NC(=O)c1cc(Cl)ccc1NC(=O)c1cccnc1	15.6 nM
CNC(=O)C(=O)[C@H](CCC(C)(F)F)NC(=O)c1cc(Cl)ccc1NC(=O)C1CC12CCOCC2 (stereo partly shown) [Example 26]	15.1 nM

Moving on to the next molecule.
Request the reported IC50 associated with Cc1cnc(NC(=O)c2cccc(C(F)(F)F)c2)c(C(=O)N[C@@H](CCC(C)(F)F)C(=O)C(=O)NC2CC2)c1
76.2 nM

Every entry's value here was drawn from patent US20260209180A1.
